Test system: E. faecium
Assay: microbe, parasite or virus in culture
Type: cell-based
Settings: Enterococcus faecium, read-out: MIC value, E.faecium E355, VAN,TEI,LNZ/VanA

- COMPOUND: "CC(=O)N[C@H]1[C@H](O[C@@H]2c3ccc(c(Cl)c3)Oc3cc4cc(c3O)Oc3ccc(cc3Cl)C[C@H]3NC(=O)[C@H](NC(=O)c5cc(OCCCSCCNC(=N)N)c(OCCCSCCNC(=N)N)c(OCCCSCCNC(=N)N)c5)c5ccc(O)c(c5)Oc5cc(O)cc(c5)[C@H](NC3=O)C(=O)N[C@H]4C(=O)N[C@H]3C(=O)N[C@@H]2C(=O)N[C@H](C(=O)O)c2cc(O)cc(O)c2-c2cc3ccc2O)O[C@H](CO)[C@@H](O)[C@@H]1O"
  MIC: "> 8 µg/mL"
- COMPOUND: "CN[C@H](CC(C)C)C(=O)N[C@H]1C(=O)N[C@@H](CC(N)=O)C(=O)N[C@H]2C(=O)N[C@H]3C(=O)N[C@H](C(=O)N[C@H](C(=O)O)c4cc(O)cc(O)c4-c4cc3ccc4O)[C@H](O[C@H]3C[C@](C)(N)[C@@H](O)[C@H](C)O3)c3ccc(c(Cl)c3)Oc3cc2cc(c3O[C@@H]2O[C@H](CO)[C@@H](O)[C@H](O)[C@H]2O[C@H]2C[C@](C)(NCc3ccc(-c4ccc(Cl)cc4)cc3)[C@@H](O)[C@H](C)O2)Oc2ccc(cc2Cl)[C@H]1O [ORI, oritavancin, reference compound]"
  MIC: "0.0625 µg/mL"
- COMPOUND: "CC(=O)N[C@H]1[C@H](O[C@@H]2c3ccc(c(Cl)c3)Oc3cc4cc(c3O)Oc3ccc(cc3Cl)C[C@H]3NC(=O)[C@H](n5cc(COCCCC(F)(F)C(F)(F)C(F)(F)C(F)(F)C(F)(F)C(F)(F)F)nn5)c5ccc(O)c(c5)Oc5cc(O)cc(c5)[C@H](NC3=O)C(=O)N[C@H]4C(=O)N[C@H]3C(=O)N[C@@H]2C(=O)N[C@H](C(=O)O)c2cc(O)cc(O)c2-c2cc3ccc2O)O[C@H](CO)[C@@H](O)[C@@H]1O"
  MIC: "> 8 µg/mL"
- COMPOUND: "CN[C@H](CC(C)C)C(=O)N[C@H]1C(=O)N[C@@H](CC(N)=O)C(=O)N[C@H]2C(=O)N[C@H]3C(=O)N[C@H](C(=O)N[C@H](C(=O)O)c4cc(O)cc(O)c4-c4cc3ccc4O)[C@H](O)c3ccc(c(Cl)c3)Oc3cc2cc(c3O[C@@H]2O[C@H](CO)[C@@H](O)[C@H](O)[C@H]2O[C@H]2C[C@](C)(N)[C@H](O)[C@H](C)O2)Oc2ccc(cc2Cl)[C@H]1O [VAN, vancomycin, reference compound]"
  MIC: "> 64 µg/mL"
- COMPOUND: "CC(=O)N[C@H]1[C@H](O[C@@H]2c3ccc(c(Cl)c3)Oc3cc4cc(c3O)Oc3ccc(cc3Cl)C[C@H]3NC(=O)[C@H](NC(=O)CCC(F)(F)C(F)(F)C(F)(F)C(F)(F)C(F)(F)C(F)(F)C(F)(F)C(F)(F)F)c5ccc(O)c(c5)Oc5cc(O)cc(c5)[C@H](NC3=O)C(=O)N[C@H]4C(=O)N[C@H]3C(=O)N[C@@H]2C(=O)N[C@H](C(=O)O)c2cc(O)cc(O)c2-c2cc3ccc2O)O[C@H](CO)[C@@H](O)[C@@H]1O"
  MIC: "> 8 µg/mL"
- COMPOUND: "CC(=O)N[C@H]1[C@H](O[C@@H]2c3ccc(c(Cl)c3)Oc3cc4cc(c3O)Oc3ccc(cc3Cl)C[C@H]3NC(=O)[C@H](n5cc(COCCOCCCC(F)(F)C(F)(F)C(F)(F)C(F)(F)F)nn5)c5ccc(O)c(c5)Oc5cc(O)cc(c5)[C@H](NC3=O)C(=O)N[C@H]4C(=O)N[C@H]3C(=O)N[C@@H]2C(=O)N[C@H](C(=O)O)c2cc(O)cc(O)c2-c2cc3ccc2O)O[C@H](CO)[C@@H](O)[C@@H]1O"
  MIC: "> 8 µg/mL"

###

Tested on: E. faecium
Experiment: microbe, parasite or virus in culture
Format: cell-based
Details: Enterococcus faecium, read-out: MIC value, E.faecium E1132, VAN,TEI,LNZ/VanA
ASSAY_ENDPOINT: MIC

- MOLECULE: "CC(=O)N[C@H]1[C@H](O[C@@H]2c3ccc(c(Cl)c3)Oc3cc4cc(c3O)Oc3ccc(cc3Cl)C[C@H]3NC(=O)[C@H](n5cc(COCCCC(F)(F)C(F)(F)C(F)(F)C(F)(F)C(F)(F)C(F)(F)F)nn5)c5ccc(O)c(c5)Oc5cc(O)cc(c5)[C@H](NC3=O)C(=O)N[C@H]4C(=O)N[C@H]3C(=O)N[C@@H]2C(=O)N[C@H](C(=O)O)c2cc(O)cc(O)c2-c2cc3ccc2O)O[C@H](CO)[C@@H](O)[C@@H]1O"
  ASSAY_SYSTEM: "E. faecium"
  OBSERVED_RESULT: "> 8 µg/mL"
- MOLECULE: "CN[C@H](CC(C)C)C(=O)N[C@H]1C(=O)N[C@@H](CC(N)=O)C(=O)N[C@H]2C(=O)N[C@H]3C(=O)N[C@H](C(=O)N[C@H](C(=O)O)c4cc(O)cc(O)c4-c4cc3ccc4O)[C@H](O)c3ccc(c(Cl)c3)Oc3cc2cc(c3O[C@@H]2O[C@H](CO)[C@@H](O)[C@H](O)[C@H]2O[C@H]2C[C@](C)(N)[C@H](O)[C@H](C)O2)Oc2ccc(cc2Cl)[C@H]1O [VAN, vancomycin, reference compound]"
  ASSAY_SYSTEM: "E. faecium"
  OBSERVED_RESULT: "> 64 µg/mL"
- MOLECULE: "CC(=O)N[C@H]1[C@H](O[C@@H]2c3ccc(c(Cl)c3)Oc3cc4cc(c3O)Oc3ccc(cc3Cl)C[C@H]3NC(=O)[C@H](NC(=N)N)c5ccc(O)c(c5)Oc5cc(O)cc(c5)[C@H](NC3=O)C(=O)N[C@H]4C(=O)N[C@H]3C(=O)N[C@@H]2C(=O)N[C@H](C(=O)O)c2cc(O)cc(O)c2-c2cc3ccc2O)O[C@H](CO)[C@@H](O)[C@@H]1O"
  ASSAY_SYSTEM: "E. faecium"
  OBSERVED_RESULT: "0.0625 µg/mL"

###

Experiment: Cytotoxicity in mock-infected HEL cells (MTS)
Type: cell-based, human
Conditions: human; mock-infected HEL cells, MTS, mean of 2–3 tests

- TEST_SMILES: "O=C(O)CCC(F)(F)C(F)(F)C(F)(F)C(F)(F)C(F)(F)C(F)(F)C(F)(F)C(F)(F)F"
  CC50: "> 100 µM"

###

Tested on: S. haemolyticus
Test: MIC, broth microdilution
Type: cell-based
Details: Staphylococcus haemolyticus, S.haemolyticus DALB_R3, mecA; read-out: MIC value

- MOLECULE: "CN[C@H](CC(C)C)C(=O)N[C@H]1C(=O)N[C@@H](CC(N)=O)C(=O)N[C@H]2C(=O)N[C@H]3C(=O)N[C@H](C(=O)N[C@H](C(=O)O)c4cc(O)cc(O)c4-c4cc3ccc4O)[C@H](O[C@H]3C[C@](C)(N)[C@@H](O)[C@H](C)O3)c3ccc(c(Cl)c3)Oc3cc2cc(c3O[C@@H]2O[C@H](CO)[C@@H](O)[C@H](O)[C@H]2O[C@H]2C[C@](C)(NCc3ccc(-c4ccc(Cl)cc4)cc3)[C@@H](O)[C@H](C)O2)Oc2ccc(cc2Cl)[C@H]1O [ORI, oritavancin, reference compound]"
  MIC: "0.25 µg/mL"

###

System: S. haemolyticus
Test: MIC, broth microdilution
Format: cell-based
Conditions: Staphylococcus haemolyticus, S.haemolyticus ORI_R1, mecA; read-out: MIC value

- MOLECULE: "CN[C@H](CC(C)C)C(=O)N[C@H]1C(=O)N[C@@H](CC(N)=O)C(=O)N[C@H]2C(=O)N[C@H]3C(=O)N[C@H](C(=O)N[C@H](C(=O)O)c4cc(O)cc(O)c4-c4cc3ccc4O)[C@H](O[C@H]3C[C@](C)(N)[C@@H](O)[C@H](C)O3)c3ccc(c(Cl)c3)Oc3cc2cc(c3O[C@@H]2O[C@H](CO)[C@@H](O)[C@H](O)[C@H]2O[C@H]2C[C@](C)(NCc3ccc(-c4ccc(Cl)cc4)cc3)[C@@H](O)[C@H](C)O2)Oc2ccc(cc2Cl)[C@H]1O [ORI, oritavancin, reference compound]"
  MIC, µg/mL: 0.5

###

Tested on: E. faecalis
Assay: MIC, broth microdilution
Format: cell-based
Conditions: Enterococcus faecalis, read-out: MIC value, E.faecalis OG1RF
ASSAY_ENDPOINT: MIC (µg/mL)

- TEST_SMILES: "CC(=O)N[C@H]1[C@H](O[C@@H]2c3ccc(c(Cl)c3)Oc3cc4cc(c3O)Oc3ccc(cc3Cl)C[C@H]3NC(=O)[C@H](NC(=O)c5cc(OCCCSCCNC(=N)N)c(OCCCSCCNC(=N)N)c(OCCCSCCNC(=N)N)c5)c5ccc(O)c(c5)Oc5cc(O)cc(c5)[C@H](NC3=O)C(=O)N[C@H]4C(=O)N[C@H]3C(=O)N[C@@H]2C(=O)N[C@H](C(=O)O)c2cc(O)cc(O)c2-c2cc3ccc2O)O[C@H](CO)[C@@H](O)[C@@H]1O"
  ASSAY_SYSTEM: "E. faecalis"
  VALUE_UNIT: "µg/mL"
  OBSERVED_RESULT: 2

Cited source for all entries: paper PMC9511441
